The measurements presented in this section are drawn from PubChem BioAssay (NCI).

Would you mind telling me the reported log10 of TGI of each entry?
- Tested on: MDA-MB-435
- ASSAY PROCEDURE: NCI tumour cell line growth inhibition, 48 h
Log10 applied to TGI; unit prior to transform: µM.

Exercise: What does the data say about its log10 of TGI? Entry: CN(C)c1ccc(N)cc1
Solution: 1.18

Exercise: Another compound to look at: CN(C)CCOc1ccc(/C(=C(/CCCCCCCCCC[P+](c2ccccc2)(c2ccccc2)c2ccccc2)c2ccccc2)c2ccccc2)cc1
Solution: -0.05

Exercise: Moving on to Cc1ccc(/C(=C/C=C(C#N)C#N)Sc2ccc(Cl)cc2)cc1
Solution: 1.03

Exercise: Proceed to CN(C)CCn1c(=O)c2ccc(NCCNCCO)c3c(=O)c4ccccc4n(c1=O)c23
Solution: 0.32

Exercise: For CCOC(=O)c1cc(/C(=N\O)c2cc(OC)c(OC)c(OC)c2)n2cc(C)cc(C)c12 then?
Solution: 0.62
